meta.source: PubChem BioAssay (NCI)

# Test system: SK-MEL-2 melanoma
# Protocol text: NCI-60 one-dose screen, 48 h (100 = growth as untreated, 0 = no growth, -100 = all killed)
# Run parameters: 10 µM unless noted
# Protocol: Growth inhibition of the SK-MEL-2 human tumor cell line is measured as a screen for anti-cancer activity. Cells are grown in 96 well plates and exposed to the test compound for 48 hours. Compounds are tested at a single concentration, which is 10^-5 M for most compounds. The reported endpoint is percent growth (GI% or GIPRCNT), where numbers from 0 - 100% represent growth inhibition, and numbers from -100% - 0 represent cell death. For example, a value of 40 represents 60% growth inhibition. […]
The panel holds about 83,000 compounds, 20% with a hit somewhere; the sample as a whole holds those more often.
# if measured growth < 70%: satisfied  # else: not satisfied

IN: API: query returns whether the compound falls strictly under 70% in growth. Query: "CCOc1ccc(-n2c(-c3cc(OC)c(OC)c(OC)c3)nnc2-c2ccc(OC)cc2N)cc1"
OUT: satisfied

IN: Next compound up: "Nc1nc(Cl)cc(NCc2ccc(CNc3cc(Cl)nc(N)n3)cc2)n1"
OUT: not satisfied

IN: Now try "O=[N+]([O-])c1ccc(NS(=O)(=O)c2cc(Cl)ccc2Cl)c2ccccc12" .
OUT: satisfied

IN: Now the compound "c1ccc2nc(Cn3cc[n+](Cc4ccc5ccccc5n4)c3)ccc2c1"
OUT: satisfied

IN: Could you do the same for "Clc1ccc(CN2COc3c(ccc4cccnc34)C2)cc1Cl" , please?
OUT: satisfied

IN: Now try "Nc1c(C(=O)O)[nH]c(=O)[nH]c1=O" .
OUT: not satisfied

IN: Here is the next compound: "COc1ccc(Cl)cc1NC(=O)c1cc2c(n1C)-c1nc(NC(=O)C(C)C)sc1CC2"
OUT: satisfied

###

# System: UACC-257 melanoma
# Protocol text: NCI-60 one-dose screen, 48 h (100 = growth as untreated, 0 = no growth, -100 = all killed)
# Run parameters: 10 µM unless noted
This is part of a sample that, as a whole, favours compounds with a hit. Of some 83,000 tested, about 20% had one in any assay.
Quantity name: growth (%)
# number only, unit % dropped from output

IN: Requested read-out: growth. Entry: "CCOc1ccc(NC(=O)Nc2cc(C(C)C)ccc2C)cc1"
OUT: 66.4

IN: Another: CC1OC(n2c3ccccc3c3c4c(c5c6ccccc6[nH]c5c32)C(=O)N(CCN[C@@H]2CCC[C@H]2N)C4=O)CC(O)C1O (some centres undefined)
OUT: 29.8

IN: Another molecule to look at: "C=C1C(=O)O[C@H]2[C@H]1CC/C(CNC(=O)/C1=C/CC[C@@]3(C)O[C@H]3[C@H]3OC(=O)C(=C)[C@@H]3CC1)=C\CC[C@@]1(C)O[C@@H]21"
OUT: 79.9

IN: Same again, this time with O=C(COc1ccc(Cl)cc1Cl)N1N=C(c2ccc(Cl)cc2Cl)CC1(O)c1cc(F)c(Cl)cc1Cl (centres undefined)
OUT: 99

###

The compounds listed here are annotated with their growth.
# System: SR leukemia
# Protocol text: NCI-60 one-dose screen, 48 h (100 = growth as untreated, 0 = no growth, -100 = all killed)
# Run parameters: 10 µM unless noted
This is part of a sample that, as a whole, favours compounds with a hit. Of some 83,000 tested, about 20% had one in any assay.
Express your answer in %, writing the number without its unit.

Study these solved cases before continuing.
> print(dat)
                                   compound  quantity.name  value.units  test.value
1  COC1OCC(OS(=O)(=O)c2ccc(C)cc2)C(OC(=O)c2ccccc2)C1OC(=O)c1ccccc1 (stereo unspecified)         growth            %        39.6
2  CCCCNC(=O)Oc1ccc(/C(=C(/CC)Cc2ccccc2)c2ccc(OCCCN(C)C)cc2)cc1         growth            %          22
3  C=C1C(=O)O[C@H]2[C@H]1CC/C(CNC(=O)/C1=C/CC[C@@]3(C)O[C@H]3[C@H]3OC(=O)C(=C)[C@@H]3CC1)=C\CC[C@@]1(C)O[C@@H]21         growth            %        92.4

IN: Quick one: growth of "CN(C)c1ccc2cc(-c3nc4ccccc4s3)c(N)nc2c1" ?
OUT: 20.9

IN: Now this one: "COc1ccc(-c2nnc(NC(=O)CN3CCN(c4cc5c(cc4F)c(=O)c(C(=O)O)cn5C4CC4)CC3)s2)cc1OC"
OUT: 102

IN: Now the compound "NS(=O)(=O)c1ccc(CCN2C(=O)/C(=C\c3ccc(Cl)cc3)C=C2c2ccc(Oc3ccccc3)cc2)cc1"
OUT: 45.9

###

# Tested on: SK-OV-3 ovarian
# Protocol text: NCI-60 one-dose screen, 48 h
# Run parameters: 10 µM unless noted
# Method: Growth inhibition of the SK-OV-3 human tumor cell line is measured as a screen for anti-cancer activity. Cells are grown in 96 well plates and exposed to the test compound for 48 hours. Compounds are tested at a single concentration, which is 10^-5 M for most compounds. The reported endpoint is percent growth (GI% or GIPRCNT), where numbers from 0 - 100% represent growth inhibition, and numbers from -100% - 0 represent cell death. For example, a value of 40 represents 60% growth inhibition. […]
About 83,000 compounds went through this panel and 20% of them were active in at least one assay; those are over-represented in the sample as a whole. The source made the active and inactive calls. The calls were made as follows: active = growth percent below 10; inactive = the rest.
Parameter call: string, one of yes for active, no for inactive

> print(dat)
                                   molecule      system.name  discrete.label
1         COc1ccccc1P(c1ccccc1OC)c1ccccc1OC  SK-OV-3 ovarian              no
2  CS(=O)(=O)OCC(COS(C)(=O)=O)C(c1ccccc1)c1ccccc1  SK-OV-3 ovarian              no
3  O=S1(=O)N(CCNc2nccc(-c3c(-c4cccc(O)c4)nc4sccn34)n2)CCN1Cc1ccccc1  SK-OV-3 ovarian              no

IN: Each molecule tested received a call. Report the one for "CC(C)[C@@H]1NC(=O)[C@]2(C)CSC(=N2)c2ccnc(c2)CNC(=O)C[C@@H](/C=C/CCS)OC1=O" .
OUT: yes

IN: Next up: "O=C(Nc1cccc(-n2ccc3c(NC(=O)c4ccccc4)nccc32)c1)Nc1ccc(Cl)c(C(F)(F)F)c1"
OUT: yes

IN: Item: "CS(=O)(=O)Nc1cccc(-c2ccc3ncnc(Nc4ccc(F)c(Cl)c4)c3c2)c1"
OUT: yes

IN: Same question, Cc1ccc2c(C3C(C#N)=C(N)Oc4cc5ccccc5cc43)cc(=O)oc2c1 (stereo not drawn) this time
OUT: no

IN: Next up: "C=C1c2c(Cl)ccc(O)c2C(O)=C2C(=O)[C@]3(O)C(O)=C(C(N)=O)C(=O)[C@@H](N(C)C)[C@@H]3[C@@H](O)[C@H]12"
OUT: no

###

# System: RPMI-8226 leukemia
# Protocol text: NCI-60 one-dose screen, 48 h (100 = growth as untreated, 0 = no growth, -100 = all killed)
# Run parameters: 10 µM unless noted
About 83,000 compounds went through this panel and 20% of them were active in at least one assay; those are over-represented in the sample as a whole.
Classification field: satisfied = growth at or over 70%; not satisfied = growth under 70%.

IN: Does the reported growth for "O=C(Cn1c2ccccc2c2ccncc21)N/N=C\c1ccc2ccccc2c1" fall at or above the 70% mark?
OUT: not satisfied

IN: And for "COc1cc(NS(C)(=O)=O)ccc1Cc1c2ccccc2nc2ccccc12" ?
OUT: not satisfied

###

Catalogue of growth readings, one per entry.
# Tested on: NCI-H226 lung
# Protocol text: NCI-60 one-dose screen, 48 h (100 = growth as untreated, 0 = no growth, -100 = all killed)
# Run parameters: 10 µM unless noted
Compounds without any hit were thinned out: in the full panel of roughly 83,000, 20% have a hit. Activity calls are given as the source filed them. Rule for the calls: active = growth percent below 10; inactive = the rest.

> print(dat)
                                   compound        test.value
1  C#C[C@@]1(O)[C@@H](CO)O[C@@H](n2cc(Br)c3c(Cl)ccnc32)[C@@H]1O  47.2% (inactive)

IN: Name the reported growth value associated with the compound "O=C(Nc1cccc([N+](=O)[O-])c1)c1ccc2ccccc2c1O"
OUT: 76.9% (inactive)

IN: How about this compound: "c1nc(SC2=NCCN2)c2[nH]cnc2n1"
OUT: 46.9% (inactive)

IN: Follow-up entry: "COc1ccc(N)c(S)c1"
OUT: 92.8% (inactive)

IN: Repeat for the following compound: Cc1ccc2oc(=O)cc(C3C(C#N)=C(N)Oc4c3ccc3ccccc43)c2c1 (stereo not drawn)
OUT: 87.1% (inactive)

IN: Subsequent entry: "Nc1ccc(S(=O)(=O)Nc2cc(I)cc(I)c2)cc1"
OUT: 113% (inactive)

IN: Input "COc1ccc(/C=C2/C(=O)Nc3cc(Cl)c(-c4csc(N)n4)cc32)cc1"
OUT: 69.2% (inactive)

IN: Also need "NC(N)=N/N=C/c1ccc([N+](=O)[O-])cc1" , thanks.
OUT: 101% (inactive)
